Recorded values, source patent US9556165B2.

# Tested on: P. aeruginosa 2297 (AmpC wt)
# Experiment: MIC determination, broth microdilution (CLSI)
# Format: cell-based
# Test Settings: Pseudomonas aeruginosa, strain 7
Assay Readout: MIC (µg/mL)

| Mol | Assay Target | Quantitative Readout |
| --- | --- | --- |
| CC1(C)[C@H](NC(=O)/C(=N\OCCOc2ccc(C(=N)N)c(O)c2)c2csc(N)n2)C(=O)N1OS(=O)(=O)O | P. aeruginosa 2297 (AmpC wt) | 8 |
| C[C@H]1[C@H](NC(=O)/C(=N\OCCOc2cnc(C(=N)N)cn2)c2csc(N)n2)C(=O)N1S(=O)(=O)O | P. aeruginosa 2297 (AmpC wt) | 4 |
| CN(C)C(=O)[C@@H]1C[C@H](NC(=N)c2ccc(OCCO/N=C(\C(=O)N[C@@H]3C(=O)N(OS(=O)(=O)O)C3(C)C)c3csc(N)n3)cc2)CN1 | P. aeruginosa 2297 (AmpC wt) | 16 |
| CN1CC(NC(=N)c2ccc(OC[C@H](O/N=C(\C(=O)N[C@@H]3C(=O)N(OS(=O)(=O)O)C3(C)C)c3csc(N)n3)C(=O)O)cc2)C1 | P. aeruginosa 2297 (AmpC wt) | 2 |
| C[C@H]1[C@H](NC(=O)/C(=N\OCCOc2ccc(C(=N)N)cc2)c2nc(N)sc2Cl)C(=O)N1S(=O)(=O)O | P. aeruginosa 2297 (AmpC wt) | 2 |
| C[C@H]1[C@H](NC(=O)/C(=N\OCCOc2nc(C(=N)N)cs2)c2csc(N)n2)C(=O)N1S(=O)(=O)O | P. aeruginosa 2297 (AmpC wt) | 8 |
